reportedEndpoint: melting point

Recorded melting point, per entry:
{"columns": ["molecule", "melting point"],
 "data": [
  ["O=C1NC2(CCc3ccccc32)c2ccccc21 (stereo unspecified)", "205 to 206 °C"],
  ["C=C(C(=C)c1cc(C)sc1C)c1cc(C)sc1C", "43 to 44 °C"],
  ["CC1CCc2cc([N+](=O)[O-])cnc2C1 (stereo unspecified)", "55 to 56 °C"],
  ["C#CC1=Cc2cc(Cl)ccc2Sc2ccc(SC)cc21", "100 to 103 °C"],
  ["COc1ccccc1-n1c(=O)[nH]c2c(C(N)=O)nc(Nc3cccc(O)c3)nc21", "190 to 191 °C"]
]}

Report melting point for COC(=O)[C@H](Cc1ccc(O[Si](C)(C)C(C)(C)C)cc1)NC(=O)Nc1n[nH]c(=S)s1 please.
139 to 142 °C

Report melting point for Cc1cc(-c2nnc3c4ccccc4c(OCc4ccc5ccccc5n4)nn23)no1 please.
223 to 225 °C

Report melting point for CCN1CCN2C(=O)c3ccccc3C12c1ccccc1 (stereo unspecified) please.
122 to 124 °C

Report melting point for O=C(O)c1ccc(-n2c(-c3ccccc3)cc3c2CCCC3)cc1 please.
244 to 246 °C

Report melting point for C#Cc1cc2c(Nc3ccc(OCc4cccc(F)c4)c(Cl)c3)ncnc2s1 please.
197 °C

Report melting point for Cn1nc(-c2c(F)cccc2Cl)nc1-c1ccc(OCc2ccc(C(F)(F)F)cc2Cl)c(Cl)c1 please.
156 to 159 °C

Report melting point for O=C(C=Cc1cccc(F)c1)C=Cc1cccc(F)c1 please.
96 to 97 °C

Report melting point for COc1cc2c(cc1O)CCN(Cc1ccc(OC)c(OC)c1)C2 please.
146 to 147 °C

Report melting point for CC[C@H](NC(=O)c1cc(F)ccc1NS(=O)(=O)c1cccc2cccnc12)c1ccccc1 please.
163 °C

Report melting point for CCOC(=O)CCNC(=O)c1[nH]c(C)c(-c2nc3ccc(C(=O)c4ccccc4)cc3[nH]2)c1C please.
135 to 137 °C
